Documented growth inhibition across a set of molecules
# protocol-description: NCI Yeast Anticancer Drug Screen. Data for the CLN2oe strain (AID 163);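 note: 0% = growth of vehicle-only control cultures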
# condition-set: S. cerevisiae CLN2oe strain, at 3.7 µM, stronger effect = higher value
This is part of a sample that, as a whole, favours compounds with a hit. Of some 79,000 tested, about 15% had one in any assay.
measured-quantity: growth inhibition (%)

{"molecule": "CO[C@H](/C(C)=C/C=C/C(C)=C/c1coc(C)n1)[C@H](C)[C@H]1C[C@@H](O)[C@@]2(C)O[C@H]2/C=C/[C@@H](C)[C@@H]2C[C@@H](CC(=O)O2)C[C@H]2O[C@@H]2C(=O)O1", "measured-quantity": "growth inhibition", "recorded-measurement": -17}
{"molecule": "CC1(Cl)CC(C)(/C=C/Cl)C(Cl)CC1Cl (stereo not given)", "measured-quantity": "growth inhibition", "recorded-measurement": 5}
{"molecule": "CCN(CC)CCBr", "measured-quantity": "growth inhibition", "recorded-measurement": -5}
{"molecule": "CC[PH+](CC)CC.CC[PH+](CC)CC.[Au]", "measured-quantity": "growth inhibition", "recorded-measurement": 20}
{"molecule": "Oc1cccc2nc3ccccc3nc12", "measured-quantity": "growth inhibition", "recorded-measurement": -14}
{"molecule": "CC12CCC(C1)C(C)(C)C2OC(=O)c1ccccc1N (stereo not given)", "measured-quantity": "growth inhibition", "recorded-measurement": -2}
{"molecule": "CC(=O)O/C(=C1\\C[C@H]2[C@@H]3CC=C4C[C@@H](OC(C)=O)CC[C@]4(C)[C@H]3CC[C@]2(C)C1=O)C(F)(F)F", "measured-quantity": "growth inhibition", "recorded-measurement": 4}
{"molecule": "O=[N+]([O-])c1cc(S(=O)(=O)F)ccc1Cl", "measured-quantity": "growth inhibition", "recorded-measurement": 20}
{"molecule": "Oc1cccc2cccnc12", "measured-quantity": "growth inhibition", "recorded-measurement": 86}
{"molecule": "Nc1nc(N)c2c(Cl)c(CNc3ccc(C(=O)NC(CC(=O)O)C(=O)O)cc3)ccc2n1 (stereo not given)", "measured-quantity": "growth inhibition", "recorded-measurement": 15}
{"molecule": "O=C(O)C1C2CCC(C2)C1c1ccccc1 (stereo not given)", "measured-quantity": "growth inhibition", "recorded-measurement": -10}
{"molecule": "CCOC(=O)C1=C(C(=O)OCC)C2(c3ccccc3)N(O1)c1ccccc1C2(C)C (stereo not given)", "measured-quantity": "growth inhibition", "recorded-measurement": -2}
{"molecule": "CCCCCCCCCC[Se]C#N", "measured-quantity": "growth inhibition", "recorded-measurement": 0}
{"molecule": "O=[N+]([O-])c1oc2ccc3ccccc3c2c1CCO", "measured-quantity": "growth inhibition", "recorded-measurement": 66}
{"molecule": "O=C1c2ccc3ccccc3c2CCC1N1CCCCC1 (stereo not given)", "measured-quantity": "growth inhibition", "recorded-measurement": 5}
